- System: HCT116
- Method Summary: AC50 cell viability (CellTiter-Glo); higher = less potent
- Particulars: 48 h
Quantity Measured: AC50 cell viability (µM)
Answer in µM, number only, no unit symbol.

- Molecule: "NC(=O)c1c(OCc2c(F)cc(Br)cc2F)nsc1NC(=O)NCCCCN1CCCC1 [OSI-632]"
  U: "µM"
  AC50 cell viability: 23.5
- Molecule: "C=C(C)[C@H]1Cc2c(ccc3c2O[C@@H]2COc4cc(OC)c(OC)cc4[C@@H]2C3=O)O1 [Rotenone]"
  U: "µM"
  AC50 cell viability: 0.525
- Molecule: "CC(C)c1cc(CNc2nc(Nc3cc(C4CC4)[nH]n3)cc(N3CCN(C)CC3)n2)on1 [XL-228]"
  U: "µM"
  AC50 cell viability: 0.295
- Molecule: "CC(O)c1cc(C(=O)N[C@@H](C)Cn2ccc(-c3ccc(C#N)c(Cl)c3)n2)n[nH]1 (stereo not given in full) [Darolutamide (ODM-201)]"
  U: "µM"
  AC50 cell viability: 16.6

Quick one: AC50 cell viability for "CCc1cccc(CC)c1NC(=O)N1Cc2[nH]nc(NC(=O)c3ccc(N4CCN(C)CC4)cc3)c2C1" ? 11.8

====

Catalogue of AC50 cell viability values
- Test system: HCT116
- Method Summary: AC50 cell viability (CellTiter-Glo); higher = less potent
- Particulars: 48 h
Please don't drop the unit; write it after the number.

Example entries begin here.
- Compound: "C=C1CCC2[C@](C)(CO)C(O)CC[C@]2(C)C1C/C=C1/C(=O)OCC1O (some centres not stated) [Andrographolide]"
  Measured On: "HCT116"
  AC50 cell viability: "7.42 µM"
- Compound: "N#C/C(=C(/N)Sc1ccc(N)cc1)c1ccccc1C(F)(F)F"
  Measured On: "HCT116"
  AC50 cell viability: "13.2 µM"
- Compound: "NC(CO)(CO)CCc1ccc(Sc2cccc(OCc3ccccc3)c2)cc1Cl"
  Measured On: "HCT116"
  AC50 cell viability: "7.42 µM"

Which AC50 cell viability is listed for "CNCCN(C)Cc1c[nH]nc1-c1ccc(O[C@H]2C[C@H](OCCC3CCOCC3)C2)cc1" ? 18.6 µM

What does the record list as AC50 cell viability for "COc1cc(-c2cc(-c3ccc(N4CCNCC4)cc3)cnc2C)cc(OC)c1OC" ? 9.34 µM

Item "CC(C)OC1=C(F)C=C(C=C1)C2=N[N]([C@@H](C)C/3=C(C4=CC(=CC=C4)F)/C(=O)C5=CC(=CC=C5O3)F)C6=C2C(=NC=N6)N" has what recorded AC50 cell viability? 14.8 µM

Dear colleague, I am looking for the recorded AC50 cell viability of the following compound: C=C1C(=O)O[C@@H]2[C@H]3O[C@]3(C)CC/C=C(\C)CC[C@@H]12 [Parthenolide] 13.2 µM

====

- Tested on: HCT116
- Method Summary: efficacy (fitted maximal change in viability relative to DMSO control); higher = less cytotoxic (negative = loss of viability)
- Particulars: 48 h
Measured efficacy by item
Dear colleague, please return just the value in %, with no unit written.

- Molecule: "OC[C@H](Cc1ccccc1)Nc1nc(Oc2ccc3c(c2)CCC3)nc2c1ncn2Cc1ccc(-c2ccccc2)cc1"
  Measured On: "HCT116"
  Quantity Measured: "efficacy"
  Quantitative Result: -49.7
- Molecule: "CC(C)(CNC(=O)c1cccc(-c2noc(C(F)(F)F)n2)c1)c1coc(-c2ccccc2)n1"
  Measured On: "HCT116"
  Quantity Measured: "efficacy"
  Quantitative Result: -21.4
- Molecule: "COC(=O)C1=C(C)NC(C)=C(C(=O)OCCN2CCN(C(c3ccccc3)c3ccccc3)CC2)C1c1cccc([N+](=O)[O-])c1.Cl.Cl (stereo not drawn)"
  Measured On: "HCT116"
  Quantity Measured: "efficacy"
  Quantitative Result: -75
- Molecule: "CC(C)(NC(=O)O[C@@H]1CN2CCC1CC2)c1csc(-c2ccc(F)cc2)n1"
  Measured On: "HCT116"
  Quantity Measured: "efficacy"
  Quantitative Result: -43.3
- Molecule: "OCc1ccc(-c2ccc(-c3ccc(CO)s3)o2)s1"
  Measured On: "HCT116"
  Quantity Measured: "efficacy"
  Quantitative Result: -46

# get_value(readout='efficacy', item= Oc1cc2c(cc1O)C1c3ccc(O)c(O)c3OCC1(O)C2 (stereo not drawn) ) -9.9

Name the recorded efficacy for O=C(C1CCCCC1)N1CC(=O)N2CCc3ccccc3C2C1 (stereo not drawn) . -15.9

What value of efficacy has been recorded for this entry: "COc1ccc(-c2cc3c(C)nc(N)nc3n([C@H]3CC[C@H](OCCO)CC3)c2=O)cn1" -71.8

Need efficacy of "CN1C(=O)C(=C\C2=C1N=C(NC3=CC=CC(=C3)C(O)=O)N=C2)/C4=C(Cl)C=CC=C4Cl" , thanks. -10.3

====

AC50 cell viability for assorted compounds
- Test system: HCT116
- Method Summary: AC50 cell viability (CellTiter-Glo); higher = less potent
- Particulars: 48 h
A bare number is not enough; add the unit after it.

Use these answered entries as a reference point.
- Compound: "O=C(Nc1ncc(SCCN2CCCC2)s1)[C@]1(c2ccc([S+](=O)([O-])C3CC3)cc2)C[C@H]1C1CCCCC1"
  Measured On: "HCT116"
  AC50 cell viability: "18.6 µM"
- Compound: "CN1\\N=C(N)/C2=C[N]([C@@H]3O[C@H](CO[P](O)(O)=O)[C@@H](O)[C@H]3O)C4=C2C1=NC=N4 [Triciribine phosphate]"
  Measured On: "HCT116"
  AC50 cell viability: "2.95 µM"
- Compound: "O=C(O)c1ccc(O)c2ncc(N3CCOCC3)cc12"
  Measured On: "HCT116"
  AC50 cell viability: "23.5 µM"

We next turn to a different compound, shown below.
// lookup AC50 cell viability for FC(F)(F)c1ccc(Nc2nc3cc(Oc4ccnc(-c5ncc(C(F)(F)F)[nH]5)c4)ccc3[nH]2)cc1 [RAF-265 derivative] 14.8 µM

====

- Tested on: HCT116
- Method Summary: efficacy (fitted maximal change in viability relative to DMSO control); higher = less cytotoxic (negative = loss of viability)
- Particulars: 48 h
Where a name gives a salt, the structure may show the parent alone.
Classes based on efficacy: I = under -70%, II = from -70% up to -20%, III = -20% and over

Answered cases to consult:
- Compound: "CC(=O)N1CCC[C@H]1C(=O)N[C@@H](Cc1c[nH]cn1)C(=O)N[C@@H](CO)C(=O)N[C@@H](CS)C(=O)N[C@@H](CC(N)=O)C(N)=O"
  Classification: "III"
- Compound: "O=C(/C=C/c1ccc(Cl)cc1)N1CCC2(CC1)CN(Cc1ccc(Cl)c(Cl)c1)C(=O)O2"
  Classification: "I"
- Compound: "CC[S+](=O)([O-])c1ccc2oc(-c3ccc4ccccc4c3)nc2c1"
  Classification: "II"
- Compound: "C[C@H]1CN(C[C@@H](C)N1)C2=C(F)C3=C(C(=C2F)N)C(=O)\\C(=C/N3C4CC4)C(O)=O"
  Classification: "III"
- Compound: "Nc1cccc(-c2cc3c(Oc4cccc(O)c4)ncnc3[nH]2)c1"
  Classification: "I"
- Compound: "N[S+](=O)([O-])c1ccc(Cc2c(-c3cccc(-c4ccccc4)c3)nn(-c3nc(C(=O)O)cs3)c2CC2CC2)cc1"
  Classification: "II"

Kindly identify the class of "C[C@]1(c2nc3c(C(N)=O)cccc3[nH]2)CCCN1" . II

Which efficacy band matches "N\C1=N\C2=C(N=C[N]2COCCO)C(=O)N1" ? III

Textbook exercise: identify the category of the compound given here, CC(=O)O[C@@]1(CC[C@H]2[C@@H]3\C=C(Cl)/C4=C/C(=O)[C@@H]5C[C@@H]5[C@]4(C)[C@H]3CC[C@]12C)C(C)=O [Cyproterone acetate] , according to its measured value. II

Looking at CN(C)[C@H]\1[C@@H]2[C@@H](O)[C@@H]\3C(=C)C4=C(C(=CC=C4)O)C(=O)C3=C(\O)[C@@]2(O)C(=O)\C(=C1O)C(N)=O [Methacycline hydrochloride] , which class would you pick? III

Determine which band this compound sits in: "CCc1nc(-c2cccc(C)c2)c(-c2ccnc(NC(=O)c3ccccc3)c2)s1" I

Which class is correct for the following compound? "Cn1c(/C=C/CO)c(CO)c2c1C(=O)C=C(N1CC1)C2=O" III

Into which bin does this compound go? "NCCCCNCCCN" I

====

- System: HCT116
- Method Summary: efficacy (fitted maximal change in viability relative to DMSO control); higher = less cytotoxic (negative = loss of viability)
- Particulars: 48 h
Quantity Measured: efficacy (%)
Please reply with the bare figure in % and do not write the unit itself.

- Compound: "CNc1nc(Nc2cnn([C@H]3CCN(C4COC4)C[C@@H]3F)c2Cl)ncc1C(F)(F)F"
  Quantity Measured: "efficacy"
  U: "%"
  Quantitative Result: -51.4
- Compound: "CCc1nc(N)nc(N)c1-c1ccc(Cl)cc1"
  Quantity Measured: "efficacy"
  U: "%"
  Quantitative Result: -88.5
- Compound: "CC(C)(O)C(=O)Nc1ccc([N+](=O)[O-])c(C(F)(F)F)c1 [Hydroxyflutamide]"
  Quantity Measured: "efficacy"
  U: "%"
  Quantitative Result: -27.7
- Compound: "CN(C)N(C)C(=O)[C@@]1(Cc2ccccc2)CCCN(C(=O)[C@@H](Cc2c[nH]c3ccccc23)NC(=O)C(C)(C)N)C1"
  Quantity Measured: "efficacy"
  U: "%"
  Quantitative Result: -33.8
- Compound: "CNC(=O)CCc1cc(-c2ccc(-c3ccc(C(F)(F)F)cc3)cc2)n(-c2ccc(N3CCNCC3)cc2)n1"
  Quantity Measured: "efficacy"
  U: "%"
  Quantitative Result: -90.4
- Compound: "O=C(/C=C/C#Cc1cccc(N[S+](=O)([O-])c2ccccc2)c1)NO"
  Quantity Measured: "efficacy"
  U: "%"
  Quantitative Result: -99.5

Which measured efficacy value corresponds to Cc1ccc(C(C)(O)c2nc3ccccc3s2)c(C)c1 (stereo not drawn) ? -43.4

Find the recorded efficacy belonging to "C[C@@H](Nc1cc(F)cc(F)c1)c1cc(C(=O)N(C)C)cc2c(=O)cc(N3CCOCC3)oc12" and report it. -78.7
